Biological target: T1, TNFR1 (Homo sapiens, UniProt P19438)
T1 chain: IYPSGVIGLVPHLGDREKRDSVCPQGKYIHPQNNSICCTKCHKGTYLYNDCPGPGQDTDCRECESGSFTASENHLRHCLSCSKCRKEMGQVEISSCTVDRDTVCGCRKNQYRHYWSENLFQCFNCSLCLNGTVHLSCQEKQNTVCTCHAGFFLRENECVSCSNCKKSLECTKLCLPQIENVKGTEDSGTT
Experiment: yeast display SC50
property-measured: apparent Kd (screen) (nM)

A80C (designed binder) MTLQELLREEALRRAEAEAFRYALELLAEKFPEQKEYLLDLAEEIESQIRSLSGVDVEDVRKFLDKEWAWVKELLAEHPCELAEVEAARAARLAELRAEVEAKVAA: 0.49
A105H (designed binder) MTLQELLREEALRRAEAEAFRYALELLAEKFPEQKEYLLDLAEEIESQIRSLSGVDVEDVRKFLDKEWAWVKELLAEHPAELAEVEAARAARLAELRAEVEAKVHA: 0.49

1. L93H (designed binder) MTLQELLREEALRRAEAEAFRYALELLAEKFPEQKEYLLDLAEEIESQIRSLSGVDVEDVRKFLDKEWAWVKELLAEHPAELAEVEAARAARHAELRAEVEAKVAA
2. S47K (designed binder) MTLQELLREEALRRAEAEAFRYALELLAEKFPEQKEYLLDLAEEIEKQIRSLSGVDVEDVRKFLDKEWAWVKELLAEHPAELAEVEAARAARLAELRAEVEAKVAA
3. V55Q (designed binder) MTLQELLREEALRRAEAEAFRYALELLAEKFPEQKEYLLDLAEEIESQIRSLSGQDVEDVRKFLDKEWAWVKELLAEHPAELAEVEAARAARLAELRAEVEAKVAA
4. L24K (designed binder) MTLQELLREEALRRAEAEAFRYAKELLAEKFPEQKEYLLDLAEEIESQIRSLSGVDVEDVRKFLDKEWAWVKELLAEHPAELAEVEAARAARLAELRAEVEAKVAA
5. L7H (designed binder) MTLQELHREEALRRAEAEAFRYALELLAEKFPEQKEYLLDLAEEIESQIRSLSGVDVEDVRKFLDKEWAWVKELLAEHPAELAEVEAARAARLAELRAEVEAKVAA
Order these by apparent Kd (screen), descending, and give the full ranking. Enter labels, ranked according to the request.
4, 5, 3, 2, 1
